Taken from PubChem BioAssay (NCI).

# Test system: A498 renal
# assay-details: NCI tumour cell line growth inhibition, 48 h
endpoint: TGI

The following compounds have reported results that may help.
compound	endpoint-result
Cc1ccc(S(=O)(=O)NC(=O)NCc2ccc(S(N)(=O)=O)cc2)cc1	> 100 µM
COc1ccc2c(c1)C(=O)c1c-2n(CCCn2ccnc2)c(=O)c2ccccc12	1.76 µM
CC(C)CCCC(C)[C@H]1CC[C@H]2n3c(nnc3-c3ccccc3)CCC[C@]12C (some centres undefined)	31.8 µM

Tell me TGI reported for "Cc1nc2ccccc2c(=O)n1NC(=O)c1ccccn1"
> 100 µM

* * *

# Test system: RPMI-8226 leukemia
# assay-details: NCI tumour cell line growth inhibition, 48 h; in the data active means GI50 below about 0.43 µM; inactive means the rest
A correct response names exactly one class from y for active, n for inactive

Example cases with answers are listed next.
> print(dat)
                                   compound  category
1      Cc1cc(C)c(C(=O)CC(=O)c2cccnc2)c(C)c1         n
2                     O=C(CCl)Nc1ccc(Cl)cc1         n
3  CC(=O)OC1CC(O)C23COC(O)C1(C)C2CC(O)C1(C)C3C(=O)C(O)C2(C)C(c3ccoc3)CC3OC321 (centres undefined)         y

Now take the following compound into account.
Status in this test for "Cc1cn2c(/C=C3/C(=O)N(C)c4ccccc43)c(C)nc2s1" ?
n
